Molecular target: T1, human soluble IL-4Rα (sIL-4Rα) (human, UniProt P24394 26-232)
T1 construct: Bought reagent (PEPRO TECH, Catalog Number 200-04R); also called shIL-4Rα; soluble hIL-4 Rα
T1 sequence: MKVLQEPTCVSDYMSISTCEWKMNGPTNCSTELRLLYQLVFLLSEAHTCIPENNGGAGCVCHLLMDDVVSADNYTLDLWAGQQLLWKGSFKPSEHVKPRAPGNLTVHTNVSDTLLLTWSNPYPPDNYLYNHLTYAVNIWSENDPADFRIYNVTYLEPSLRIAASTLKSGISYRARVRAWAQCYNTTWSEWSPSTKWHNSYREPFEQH
Assay: ELISA, coated sIL-4Rα, culture supernatant
Assay Metric: OD 450/OD450Control antibody 1
Answer as a number with no unit attached.

Which measured OD 450/OD450Control antibody 1 value corresponds to L1021H1027 (antibody, V domains shown, human kappa) VH: EVQLVESGGGLVHPGGSLRLSCAASGFTFSRNAMFWVRQAPGKGLEWVSGIGTGGATSYADSVKGRFTISRDNAKNSLYLQMNSLRAEDTAVYYCARGRYYFPWWGQGTLVTVSS VL: EIVLTQSPGTLSLSPGERATLSCRASQSVSSSYLAWYQQKPGQAPRLLIFGASSRAPGIPDRFSGSGSGTDFTLTISRLEPEDFAVYYCQQYDHSAGWTFGQGTKVEIK ? 0.29

Repeat for the following binder: L1001H1000 (antibody, V domains shown, human kappa) VH: EVQLVQSGGGLVHPGGSLRLSCAGSGFTFSRNAMFWVRQAPGKGLEWVSGIGTGGATNYADSVKGRFTISRDNAKNSLYLQMNSLRAEDMAVYYCARGRYYFDYWGQGTLVTVSS VL: EIVLTQSPGTLSLSPGERATLSCRASQSVSNSYLAWYQQKPGQAPRLLIYGASSRAPGIPDRFSGSGSGTDFTLTISRLEPEDFAVYYCQQYDHSAGWTFGQGTKVEIK 1.56

Repeat for the following binder: L1016H1000 (antibody, V domains shown, human kappa) VH: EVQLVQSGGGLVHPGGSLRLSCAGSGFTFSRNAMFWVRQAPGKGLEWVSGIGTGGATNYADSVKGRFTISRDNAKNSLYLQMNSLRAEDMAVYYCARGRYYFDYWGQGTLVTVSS VL: EIVLTQSPGTLSLSPGERATLSCRASQSVSSSYLAWYQQKPGQAPRLLIFGASSRATGIPDRFSGSGSGTDFTLTISRLEPEDFAVYYCQQYDHSPPWTFGQGTKVEIK 0.27

Repeat for the following binder: L1020H1027 (antibody, V domains shown, human kappa) VH: EVQLVESGGGLVHPGGSLRLSCAASGFTFSRNAMFWVRQAPGKGLEWVSGIGTGGATSYADSVKGRFTISRDNAKNSLYLQMNSLRAEDTAVYYCARGRYYFPWWGQGTLVTVSS VL: EIVLTQSPGTLSLSPGERATLSCRASQSVSSSYLAWYQQKPGQAPRLLIYGASSRATGIPDRFSGSGSGTDFTLTISRLEPEDFAVYYCQQYDHSAGWTFGQGTKVEIK 0.4

Taken from patent US20190177408A1.
